So I've got a bunch of binders here, and I need their Relative KD (KD of variant / KD of VH0/VK0) values.
study.target: T1, recombinant human PD-L2 (human PD-L2 antigen) (human, UniProt Q9BQ51 20-219, limits assumed)
T1 construct: The Biacore analyte and the ELISA antigen are only called human PD-L2 antigen / recombinant hPD-L2; Whole entry named; also called hPD-L2; recombinant hPD-L2
T1 sequence (looked up): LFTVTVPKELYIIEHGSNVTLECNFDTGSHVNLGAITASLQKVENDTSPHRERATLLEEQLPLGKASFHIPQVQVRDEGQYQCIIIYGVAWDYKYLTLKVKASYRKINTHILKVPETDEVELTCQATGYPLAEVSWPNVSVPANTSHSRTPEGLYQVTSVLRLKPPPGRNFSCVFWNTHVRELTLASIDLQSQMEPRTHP
measurement.description: SPR (Biacore 8K), single cycle kinetics, antibody in culture supernatant, human PD-L2 antigen
Procedure: Table 2: Single cycle kinetic parameters of chimeric (VH0/VK0) and humanized variants (tested as cell culture supernatants) binding to human PD-L2 antigen as determined using the Biacore 8K. […] The binding affinity of antibodies of the disclosed invention may be measured or determined by standard antibody-antigen assays. The relative KD was calculated by dividing the KD of the humanized variant by that of the VH0/VK0 assayed in the same experiment.
One number for each entry.

Before answering, review these 3 worked examples.
1) VH2/VK1 (antibody, V domains shown, hIgG1 backbone, CHO expressed) VH: QVQLVQSGAEVKKPGSSVKVSCKASGYAFSNYFIEWVKQPPGKGLEWIGLNIPGSGGSNYAEKFKGRATITADKSTSTAYMELSSLRSEDSAVYFCARRRLPPDWYFDVWGQGTTVTVSS VL: DVVMTQSPLSLPVTLGQPASISCRSSQSLVHSDGNTYLHWYQQKPGQPPKLLIYKVSNRFSGVPDRFSGSGSGTDFTLKISRVEAEDVGVYFCSQSTHVPWTFGGGTKVEIK
1.54
2) VH6/VK1 (antibody, V domains shown, hIgG1 backbone, CHO expressed) VH: QVQLVQSGAEVKKPGSSVKVSCKASGYSFSNYFIEWVKQPPGKGLEWIGLNIPGSGGSNYAEKFKGRVTITADKSTSTAYMELSSLRSEDTAVYYCARRRLPPDWYFDVWGQGTTVTVSS VL: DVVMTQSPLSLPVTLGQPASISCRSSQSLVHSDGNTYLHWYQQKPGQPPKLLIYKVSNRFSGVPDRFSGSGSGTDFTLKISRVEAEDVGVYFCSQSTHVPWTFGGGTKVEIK
1.48
3) VH2/VK3 (antibody, V domains shown, hIgG1 backbone, CHO expressed) VH: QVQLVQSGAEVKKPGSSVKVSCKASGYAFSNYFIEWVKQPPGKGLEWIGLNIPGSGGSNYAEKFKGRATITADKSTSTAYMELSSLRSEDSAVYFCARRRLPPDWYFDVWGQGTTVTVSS VL: DVVMTQSPLSLPVTLGQPASISCRSSQSLVHSGGNTYLHWYQQKPGQPPKLLIYKVSNRFSGVPDRFSGSGSGTDFTLKISRVEAEDVGVYFCSQSTHVPWTFGGGTKVEIK
7.46

Batch request: Relative KD (KD of variant / KD of VH0/VK0) per item, same order as input.
1. VH3/VK2 (antibody, V domains shown, hIgG1 backbone, CHO expressed) VH: QVQLVQSGAEVKKPGSSVKVSCKASGYAFSNYFIEWVKQPPGKGLEWIGLNIPGSGGSNYAEKFKGRVTITADKSTSTAYMELSSLRSEDSAVYFCARRRLPPDWYFDVWGQGTTVTVSS VL: DVVMTQSPLSLPVTLGQPASISCRSSQSLVHSDGNTYLHWYQQKPGQPPKLLIYKVSNRFSGVPDRFSGSGSGTDFTLKISRVEAEDVGVYYCSQSTHVPWTFGGGTKVEIK
2. VH6/VK3 (antibody, V domains shown, hIgG1 backbone, CHO expressed) VH: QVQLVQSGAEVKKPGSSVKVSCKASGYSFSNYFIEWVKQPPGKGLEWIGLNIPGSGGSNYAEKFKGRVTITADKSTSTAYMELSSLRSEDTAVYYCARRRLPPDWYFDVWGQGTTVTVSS VL: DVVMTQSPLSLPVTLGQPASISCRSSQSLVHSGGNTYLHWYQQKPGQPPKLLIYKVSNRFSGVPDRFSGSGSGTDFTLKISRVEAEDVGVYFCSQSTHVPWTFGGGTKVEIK

(A)
1.69
7.32
